Counter-ions that a name gives are not always drawn.
A collection of compounds and their measured melting point

Example entries begin here.
>>> observed_result("N=C(N)c1ccc2c(c1)C(CCNC(=O)c1ccc(-c3ccccn3)s1)CO2 (stereo not shown)")
"54 to 56 °C"
>>> observed_result("CC(C)(CN)c1ccc(C(=O)NCCC2COc3ccc(C(=N)N)cc32)cc1 (stereo not shown) (as salt: salt)")
"209 to 210 °C"
>>> observed_result("CCC(C)(C)c1ccc(S(=O)(=O)NCCC2COc3ccc(C(=N)N)cc32)cc1 (stereo not shown)")
"52 to 56 °C"

# input for lookup
Task: I'd like to know its melting point. The compound in question is CC(C)(C)c1ccc(C(=O)NCCC2COc3ccc(C(=N)N)cc32)cc1 (stereo not shown) (as salt: salt)
Result: 167 to 169 °C
